# tgt: Carboxypeptidase B (Homo sapiens, UniProt P15086)
# Sequence (P15086 whole entry): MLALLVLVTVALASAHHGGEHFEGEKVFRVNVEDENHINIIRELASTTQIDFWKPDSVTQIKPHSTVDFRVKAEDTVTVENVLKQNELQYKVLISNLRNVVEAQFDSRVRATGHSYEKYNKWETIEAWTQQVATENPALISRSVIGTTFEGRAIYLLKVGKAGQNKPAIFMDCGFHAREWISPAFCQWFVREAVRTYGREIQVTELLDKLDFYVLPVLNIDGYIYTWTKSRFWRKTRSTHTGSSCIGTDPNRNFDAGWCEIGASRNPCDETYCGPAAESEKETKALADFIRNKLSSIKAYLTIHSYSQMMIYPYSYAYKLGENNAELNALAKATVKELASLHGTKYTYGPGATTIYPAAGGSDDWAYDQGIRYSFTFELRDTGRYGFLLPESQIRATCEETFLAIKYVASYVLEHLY
# assay: Inhibition of carboxypeptidase B
quantity-name: pIC50
Numbers only, as −log10 of the molar value.

Query string: Fill in the blank: the reported pIC50 of N=C(N)NCC/C=C(/CC(=O)O)C(=O)O [LYSIANADIOIC ACID] is ____.
Result string: 6.44

These data points were gathered from ChEMBL document CHEMBL1141478.
